Entries and their growth values follow.
Test system: BT-549 breast
Experiment: NCI-60 one-dose screen, 48 h (100 = growth as untreated, 0 = no growth, -100 = all killed)
Settings: 10 µM unless noted
Compounds without any hit were thinned out: in the full panel of roughly 83,000, 20% have a hit. The source made the active and inactive calls. Rule for the calls: active = growth percent below 10; inactive = the rest.

Sample answers from the record:
Qu. Request the reported growth associated with `BrC(Br)(Br)c1cnc2ccccc2n1`
Ans. 74.4% (inactive)

Qu. Thanks! And `COc1ccc2c(c1)c(CC(=O)NCCOCCOCC(=O)Nc1ccc(OC)c(C(N)=O)c1O)c(C)n2C(=O)c1ccc(Cl)cc1` ?
Ans. 81.1% (inactive)

Qu. Thanks! And COC(=O)CCCCCCCCC1(C)C=CC(C(C)O)=CC1 (centres undefined) ?
Ans. 108% (inactive)

Please find the next compound below.
Qu. Request the reported growth associated with CC(O)(CO)c1ccccc1 (centres undefined)
Ans. 93.6% (inactive)

----------
System: OVCAR-8 ovarian
Test: NCI-60 one-dose screen, 48 h
Conditions: 10 µM unless noted
This is part of a sample that, as a whole, favours compounds with a hit. Of some 83,000 tested, about 20% had one in any assay. The source made the active and inactive calls. How the source made its calls: active means growth percent below 10; inactive means the rest.
Parameter call: string, one of label 1 (active), label 0 (inactive)

Qu. Assay result, entry `COc1ccc(Cn2nc3c(c2-c2cc(OC)c(OC)c(OC)c2)-c2oncc2CC3)cc1` — outcome?
Ans. label 0

Qu. Thanks! And `COc1ccc(CNC(=O)COc2ccc(/C=N/Nc3nc4ccccc4s3)cc2)cc1` ?
Ans. label 0

Qu. Thanks! And `COc1ccc2c(c1)OC13Oc4cc(OC)ccc4C=C1CCCC3=C2` ?
Ans. label 0

Qu. Thanks! And `O=C1Nc2c(ccc(Cl)c2Cl)/C1=C/c1ccc(O)cc1` ?
Ans. label 0

Next up:
Qu. Assay result, entry `CC1CCN(C(=O)OCc2nc3nc(Cl)nc(N4CCOCC4)c3[nH]2)CC1` — outcome?
Ans. label 1

----------
Test system: KM12 colon
Assay: NCI-60 one-dose screen, 48 h
Details: 10 µM unless noted
This is part of a sample that, as a whole, favours compounds with a hit. Of some 83,000 tested, about 20% had one in any assay. Active and inactive are the calls of the source. Rule for the calls: active = growth percent below 10; inactive = the rest.
Parameter call: string, one of active, inactive

Qu. Assay result, entry `Cc1ccccc1C(c1ccccc1)c1ccccc1C` — outcome?
Ans. inactive

Qu. Thanks! And COc1ccccc1/C=N/NC1=NC2C(N1)N(C)C(=O)N2C (stereo not drawn) ?
Ans. inactive

Qu. Thanks! And `CC(=O)c1cc2c(N)c(C(=O)Nc3cncc4ccccc34)sc2nc1C` ?
Ans. inactive

Qu. Thanks! And `CCCCCCOc1ccc(C(=N)N(CCCC)CCCC)c2ccccc12` ?
Ans. active

Qu. Thanks! And `COc1cc(-c2nc3sccn3c2-c2ccnc(NCCNS(=O)(=O)c3ccc(F)cc3)n2)ccc1F` ?
Ans. active

Qu. Thanks! And `CC(=O)Nc1ccc(S(=O)(=O)NC2CCCCC2)cc1` ?
Ans. inactive

Qu. Thanks! And `CCCCN(CCCC)CCc1c(C)cc(C)c(CCN(CCCC)CCCC)c1O` ?
Ans. inactive

Next up:
Qu. Assay result, entry `CC(C)(C)OC(=O)N1C/C(=C\c2ccoc2)C(=O)/C(=C/c2ccoc2)C1` — outcome?
Ans. inactive

----------
Tested on: SK-MEL-5 melanoma
Assay: NCI-60 one-dose screen, 48 h
Conditions: 10 µM unless noted
Protocol: Growth inhibition of the SK-MEL-5 human tumor cell line is measured as a screen for anti-cancer activity. Cells are grown in 96 well plates and exposed to the test compound for 48 hours. Compounds are tested at a single concentration, which is 10^-5 M for most compounds. The reported endpoint is percent growth (GI% or GIPRCNT), where numbers from 0 - 100% represent growth inhibition, and numbers from -100% - 0 represent cell death. For example, a value of 40 represents 60% growth inhibition. […]
This is part of a sample that, as a whole, favours compounds with a hit. Of some 83,000 tested, about 20% had one in any assay. The source made the active and inactive calls. The calls were made as follows: active = growth percent below 10; inactive = the rest.
Parameter call: string, one of 1 (yes) for active, 0 (no) for inactive

Reference set (8 entries):
Qu. Assay result, entry `O=C1c2ccccc2-c2c1c1c(NCCCO)nc3ccccc3c1n2Cc1ccccc1` — outcome?
Ans. 1 (yes)

Qu. Thanks! And `Cc1cc(NC(=O)c2cnc(N3CCN(CCOCCOCCOCCOCCC(=O)N[C@H](C(=O)N4C[C@H](O)C[C@H]4C(=O)N[C@@H](C)c4ccc(-c5scnc5C)cc4)C(C)(C)C)CC3)cn2)c2ncccc2c1` ?
Ans. 1 (yes)

Qu. Thanks! And `COc1ccc(-c2nc3sccn3c2/C=C/C(=O)c2cc(OC)c(OC)c(OC)c2)cc1` ?
Ans. 1 (yes)

Qu. Thanks! And `COc1ccc(-c2nc(N/N=C/c3cccc(O)c3)nc(N3CCOCC3)c2C#N)cc1` ?
Ans. 0 (no)

Qu. Thanks! And `CCOc1cc(CNc2ccc(N3CCOCC3)c(C(=O)O)c2)ccc1OC` ?
Ans. 0 (no)

Qu. Thanks! And `Cc1n[nH]c(C)c1-c1c(C)n[nH]c1C` ?
Ans. 1 (yes)

Qu. Thanks! And `Cc1cccc(Oc2ccc(Nc3ncnc4ccc(NC(=O)CN(C)C)cc34)cc2Cl)c1` ?
Ans. 0 (no)

Qu. Thanks! And CC(=O)OCC(=O)C1(O)C(C)CC2C3C=C(C)C4=Cc5c(cnn5-c5ccccc5)CC4(C)C3C(O)CC21C (stereo not drawn) ?
Ans. 1 (yes)

Further cases:
Qu. Assay result, entry `c1ccc2c(-c3c4ccsc4cc4[nH]c5ccccc5c34)c[nH]c2c1` — outcome?
Ans. 0 (no)

Qu. Thanks! And `Nc1nnc2cc(Cl)ccc2n1` ?
Ans. 0 (no)

Qu. Thanks! And `O=c1[nH]nc(-c2ccc(Cl)cc2)cc1Cc1cccc([N+](=O)[O-])c1` ?
Ans. 0 (no)

Qu. Thanks! And `O=CNc1cc(Cl)cc(Cl)c1` ?
Ans. 0 (no)

Qu. Thanks! And `COc1cc(/C=C2\C(=O)N(Cc3ccc(Cl)cc3)c3ccccc32)cc(OC)c1OC` ?
Ans. 0 (no)

Qu. Thanks! And CC(C)Cc1ccc(C(C)C(=O)NCc2ccc(Cn3c(=O)sn(-c4ccc(Cl)cc4)c3=O)cc2)cc1 (stereo not drawn) ?
Ans. 0 (no)

Qu. Thanks! And `CN1CCN(c2cnc(C(=O)Nc3cc(F)cc4cccnc34)cn2)CC1` ?
Ans. 0 (no)

----------
Test system: DU-145 prostate
Assay: NCI-60 one-dose screen, 48 h
Conditions: 10 µM unless noted
This is part of a sample that, as a whole, favours compounds with a hit. Of some 83,000 tested, about 20% had one in any assay. Activity calls are given as the source filed them. The calls were made as follows: active = growth percent below 10; inactive = the rest.
Parameter call: string, one of active, inactive

Reference set (10 entries):
Qu. Assay result, entry `COc1ccc(-c2nc3sccn3c2/C=C/C(=O)c2cc(OC)c(OC)c(OC)c2)cc1` — outcome?
Ans. inactive

Qu. Thanks! And `CC(C)(C)CC(C)(C)Nc1c(-c2ccc(C(F)(F)F)cc2)nc2cnccn12` ?
Ans. inactive

Qu. Thanks! And `Nc1c(C(=O)Nc2cccc3ccncc23)sc2nc3c(cc12)C(=O)CCC3` ?
Ans. inactive

Qu. Thanks! And Brc1ccc(C2CC(c3cccc(Nc4ccncc4)c3)=NN2c2ccccc2)cc1 (configuration not stated) ?
Ans. inactive

Qu. Thanks! And `Nc1nc(N)nc(NCc2ccccc2)n1` ?
Ans. inactive

Qu. Thanks! And `O=C1Nc2ccccc2/C1=C\c1cccc(/C=C2/C(=O)Nc3ccccc32)n1` ?
Ans. active

Qu. Thanks! And `Cc1cc(Nc2cccc(C(F)(F)F)c2)n2c(nc3ccccc32)c1C#N` ?
Ans. inactive

Qu. Thanks! And `Clc1ccc2c(c1)c(-c1ccccc1)nc1nncn12` ?
Ans. inactive

Qu. Thanks! And `C#CC(=O)Nc1cccc(Nc2nc3c(c(NCc4ccccc4)n2)CCCC3)c1` ?
Ans. active

Qu. Thanks! And `O=C(CCN1CCCC1)Nc1ccc2c(NCc3ccc(F)cc3)c3ccccc3nc2c1` ?
Ans. active

Further cases:
Qu. Assay result, entry COC(=O)CCCCCCCCC1(C)C=CC(C(C)O)=CC1 (configuration not stated) — outcome?
Ans. inactive

Qu. Thanks! And `CC(=O)Nc1ccc(C(=O)Nc2cc(-c3ccccc3)ccc2N)cc1` ?
Ans. inactive

----------
Test system: MDA-MB-231 breast
Assay: NCI-60 one-dose screen, 48 h
Conditions: 10 µM unless noted
Compounds without any hit were thinned out: in the full panel of roughly 83,000, 20% have a hit. Active and inactive are the calls of the source. The calls were made as follows: active = growth percent below 10; inactive = the rest.
Parameter call: string, one of active, inactive

Qu. Assay result, entry `Cc1ccc(/C=C/C(=O)c2ccc(N)cc2)c(C)c1` — outcome?
Ans. inactive

Qu. Thanks! And `COc1cc(CNC(=O)CCCCC[P+](c2ccccc2)(c2ccccc2)c2ccccc2)c(OC)c2c1OCO2` ?
Ans. inactive

Qu. Thanks! And `CC[C@H](CC[C@@H](C)[C@H]1CC[C@H]2[C@@H]3CC=C4C[C@@H](OCCc5nn[nH]n5)CC[C@]4(C)[C@H]3CC[C@]12C)C(C)C` ?
Ans. inactive

Qu. Thanks! And C/C(=C(/c1ccccc1)c1ccc(OCC(O)CNCCN2CCOCC2)cc1)c1ccccc1 (stereo unspecified) ?
Ans. inactive

Qu. Thanks! And `CN1CCN(CC#CCNC(=O)[C@]23CCC(C)(C)C[C@H]2C2=CC[C@@H]4[C@@]5(C)Cc6c([nH]c7ccccc67)C(C)(C)[C@@H]5CC[C@@]4(C)[C@]2(C)CC3)CC1` ?
Ans. inactive

Qu. Thanks! And CCCC1C(C(=O)OCC)=C(N)Oc2cc(O)ccc21 (stereo unspecified) ?
Ans. inactive

Qu. Thanks! And `O=C1Nc2c(ccc(Cl)c2Cl)/C1=C/c1ccccn1` ?
Ans. inactive

Qu. Thanks! And `COc1ccc(-c2nc(N=Nc3c(O)[nH]c4ccccc34)nc(N3CCOCC3)c2C#N)cc1` ?
Ans. inactive

Qu. Thanks! And `COc1cc(NCCN(CC(C)C)C2CCCC2)c2ncccc2c1` ?
Ans. inactive

Qu. Thanks! And `COc1ccc(-c2cnnc3c(-c4cccc(C(F)(F)F)c4)cnn23)cc1` ?
Ans. inactive

Qu. Thanks! And `O=C1Nc2c(ccc(Cl)c2Cl)/C1=C/c1ccc([N+](=O)[O-])cc1` ?
Ans. inactive
